In this section we review reported IC50 values for a set of compounds.
- tgt: human DGKα (Homo sapiens, UniProt P23743)
- Construct: TVMV protease cleavage site (C); Hexa-His (C); made in house; host or cells: Sf9 insect cells (baculovirus, Bac-to-Bac)
- Sequence (P23743 with tags, fused parts or gaps): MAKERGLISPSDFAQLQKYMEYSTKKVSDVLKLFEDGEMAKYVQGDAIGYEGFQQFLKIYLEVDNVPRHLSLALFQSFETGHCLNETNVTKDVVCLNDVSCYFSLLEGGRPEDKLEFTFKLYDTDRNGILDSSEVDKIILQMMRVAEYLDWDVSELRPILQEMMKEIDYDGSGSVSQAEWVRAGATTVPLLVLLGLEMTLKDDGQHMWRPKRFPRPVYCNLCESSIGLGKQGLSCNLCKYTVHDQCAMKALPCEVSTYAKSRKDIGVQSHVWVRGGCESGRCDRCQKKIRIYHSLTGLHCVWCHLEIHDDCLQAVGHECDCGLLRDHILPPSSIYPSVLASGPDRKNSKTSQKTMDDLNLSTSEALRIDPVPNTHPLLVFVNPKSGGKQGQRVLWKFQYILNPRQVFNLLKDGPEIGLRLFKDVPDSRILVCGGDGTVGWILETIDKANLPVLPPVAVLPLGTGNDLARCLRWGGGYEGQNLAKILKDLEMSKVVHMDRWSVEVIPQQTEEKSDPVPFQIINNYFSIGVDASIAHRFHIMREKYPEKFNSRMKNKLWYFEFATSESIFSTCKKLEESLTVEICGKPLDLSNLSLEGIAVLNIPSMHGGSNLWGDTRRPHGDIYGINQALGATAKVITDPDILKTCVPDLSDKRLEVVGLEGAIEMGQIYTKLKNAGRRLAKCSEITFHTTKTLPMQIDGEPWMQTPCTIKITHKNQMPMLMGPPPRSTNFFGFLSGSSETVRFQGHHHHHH
- testMethodNotes: DGKα LIPGLO assay (extruded liposome substrate), in vitro DGK inhibition
- Assay type: biochemical
- experimentalParameters: liposome (LIPGLO) assay; read-out: DGKa LIPGLO IC50
Respond numerically; units are nM and should not be typed.

// below: answered compounds
compound="C[C@@H]1CN(c2cc(=O)n(C)c3ccc(C#N)nc23)[C@@H](C)CN1C(c1ccc(F)cc1)c1cnn(C)c1 (single isomer, unassigned) [Example 702]" recordedvalue=1300
compound="CC[C@H]1CN(C(C)c2ccc(C(F)(F)F)cc2)[C@H](C)CN1c1cc(=O)n(C)c2ccc(C#N)nc12 (single isomer, unassigned) [Example 1143]" recordedvalue=1400
compound="CCC(c1ccc(OCC2CC2)cc1)N1C[C@H](C)N(c2cc(=O)n(C)c3ccc(C#N)nc23)C[C@H]1C (single isomer, unassigned) [Example 1440]" recordedvalue=1600
compound=CC[C@@H]1CN(c2cc(=O)n(C)c3ccc(C#N)nc23)[C@@H](CC)CN1Cc1ccc(F)cc1 recordedvalue=11
compound=C[C@@H]1CN(c2cc(=O)n(C)c3ccc(C#N)nc23)[C@@H](C)CN1Cc1cccc(N(C)C)c1 recordedvalue=4300

Now look at this entry.
stdin: Give the measured IC50 of CC[C@@H]1CN(c2cc(=O)n(C)c3ccc(C#N)nc23)[C@@H](C)CN1C(c1ccc(F)cc1)c1ncccc1F (stereo partly drawn) [Example 1105] .
stdout: 150

----------
- tgt: human DGKζ (Homo sapiens)
- Construct: TVMV protease cleavage site (C); Hexa-His (C); made in house; host or cells: Sf9 insect cells (baculovirus, Bac-to-Bac)
- testMethodNotes: DGKζ LIPGLO assay (extruded liposome substrate), in vitro DGK inhibition
- Assay type: biochemical
- experimentalParameters: liposome (LIPGLO) assay; read-out: DGKz LIPGLO IC50
Where a name gives a salt, the structure may show the parent alone.
outcomeMeasure: pIC50
Hey, just a heads up that pIC50 is the negative log base 10 of the concentration in molar.

// below: answered compounds
compound="Cc1ccnc(C(c2ccc(Cl)cc2)N2C[C@H](C)N(c3cc(=O)n(C)c4ccc(C#N)nc34)C[C@H]2C)c1 (single isomer, unassigned) [Example 448]" tgt="human DGKζ (Homo sapiens)" recordedvalue=6.18
compound="C[C@@H]1CN(c2cc(=O)n(C)c3ccc(C#N)nc23)[C@@H](C)CN1C(c1ccc(F)cc1)c1cccc(S(C)(=O)=O)c1 (single isomer, unassigned) [Example 689]" tgt="human DGKζ (Homo sapiens)" recordedvalue=5.52
compound="Cc1ccc(C(c2ccc(C#N)cc2)N2C[C@H](C)N(c3cc(=O)n(C)c4ccc(C#N)nc34)C[C@H]2C)cc1 (single isomer, unassigned) [Example 310, TFA salt]" tgt="human DGKζ (Homo sapiens)" recordedvalue=5.80
compound="CC[C@@H]1CN(c2c(F)c(=O)n(C)c3ccc(C#N)nc23)[C@@H](C)CN1C(C)c1ccc(OC(F)(F)F)cc1 (single isomer, unassigned) [Example 1329]" tgt="human DGKζ (Homo sapiens)" recordedvalue=4.59

stdin: Give the measured pIC50 of C[C@@H]1CN(c2cc(=O)n(C)c3ccc(C#N)nc23)[C@@H](C)CN1C(c1cccc(Cl)c1)c1cccc(Cl)c1 .
stdout: 6.08

----------
- tgt: human DGKα (Homo sapiens, UniProt P23743)
- Construct: TVMV protease cleavage site (C); Hexa-His (C); made in house; host or cells: Sf9 insect cells (baculovirus, Bac-to-Bac)
- testMethodNotes: DGKα LIPGLO assay (extruded liposome substrate), in vitro DGK inhibition
- Format: biochemical
- experimentalParameters: liposome (LIPGLO) assay; read-out: DGKa LIPGLO IC50
In this section we review reported IC50 values for a set of compounds.
Respond numerically; units are µM and should not be typed.

// below: answered compounds
compound="Cn1c(=O)cc(N2CCN(C(c3ccc(F)cc3)c3ccc(F)cc3)C(C(=O)NC3CC3)C2)c2nc(C#N)ccc21 (single isomer, unassigned) [Example 48]" recordedvalue=240
compound="COc1ccc(C(c2cccc(F)c2)N2C[C@H](C)N(c3cc(=O)n(C)c4ccc(C#N)nc34)C[C@H]2C)nc1 (single isomer, unassigned) [Example 686]" recordedvalue=4.3

Now look at this entry.
stdin: Give the measured IC50 of C[C@@H]1CN(c2cc(=O)n(C)c3ccc(C#N)nc23)[C@@H](C)CN1C(c1ccc(F)cc1)c1csc(C(F)(F)F)n1 (single isomer, unassigned) [Example 1333] .
stdout: 0.37

----------
- tgt: human DGKζ (Homo sapiens, UniProt Q13574)
- Construct: TVMV protease cleavage site (C); Hexa-His (C); made in house; host or cells: Sf9 insect cells (baculovirus, Bac-to-Bac)
- Sequence (Q13574 with tags, fused parts or gaps isoform Q13574-4): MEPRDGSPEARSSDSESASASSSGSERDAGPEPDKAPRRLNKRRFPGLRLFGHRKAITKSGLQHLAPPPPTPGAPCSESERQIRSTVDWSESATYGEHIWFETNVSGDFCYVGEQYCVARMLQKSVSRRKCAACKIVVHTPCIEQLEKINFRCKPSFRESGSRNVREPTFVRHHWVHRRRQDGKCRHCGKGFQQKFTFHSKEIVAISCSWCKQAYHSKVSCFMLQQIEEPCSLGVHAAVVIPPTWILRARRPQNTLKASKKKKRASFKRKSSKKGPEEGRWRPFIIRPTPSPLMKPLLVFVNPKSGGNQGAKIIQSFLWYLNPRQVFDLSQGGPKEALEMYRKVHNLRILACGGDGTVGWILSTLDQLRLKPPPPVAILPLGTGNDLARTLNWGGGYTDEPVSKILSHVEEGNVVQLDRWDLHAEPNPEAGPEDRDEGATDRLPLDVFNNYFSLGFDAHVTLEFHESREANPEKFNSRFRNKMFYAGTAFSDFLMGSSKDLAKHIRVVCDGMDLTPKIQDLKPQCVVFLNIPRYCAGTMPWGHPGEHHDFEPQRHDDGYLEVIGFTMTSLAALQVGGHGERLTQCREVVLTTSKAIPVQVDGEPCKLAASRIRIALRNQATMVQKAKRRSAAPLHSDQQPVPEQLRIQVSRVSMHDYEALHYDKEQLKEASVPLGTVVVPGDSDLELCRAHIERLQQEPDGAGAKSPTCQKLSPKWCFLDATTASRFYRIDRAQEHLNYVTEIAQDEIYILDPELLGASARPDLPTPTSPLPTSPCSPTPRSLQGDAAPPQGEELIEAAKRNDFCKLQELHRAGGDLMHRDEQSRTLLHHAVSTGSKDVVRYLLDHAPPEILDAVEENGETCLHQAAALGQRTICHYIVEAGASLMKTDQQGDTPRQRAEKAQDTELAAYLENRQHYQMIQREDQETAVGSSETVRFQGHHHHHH
- testMethodNotes: DGKζ LIPGLO assay (extruded liposome substrate), in vitro DGK inhibition
- Type: biochemical
- experimentalParameters: liposome (LIPGLO) assay; read-out: DGKz LIPGLO IC50
In this section we review reported IC50 values for a set of compounds.
Respond numerically; units are nM and should not be typed.

// below: answered compounds
compound="CCOC[C@@H]1CN(c2cc(=O)n(C)c3ccc(C#N)nc23)[C@@H](C)CN1C(c1ccc(F)cc1)c1ccc(C(F)(F)F)cn1 (stereo partly drawn) [Example 1404]" recordedvalue=50
compound="C[C@@H]1CN(c2c(C#N)c(=O)n(C)c3ccc(C#N)nc23)CCN1C(c1ccc(F)cc1)c1nccs1 (single isomer, unassigned) [Example 1024]" recordedvalue=2200
compound="CC(c1ccc(P(C)(C)=O)cc1)N1C[C@H](C)N(c2cc(=O)n(C)c3ccc(C#N)nc23)C[C@H]1C (stereo partly drawn) [Example 1290]" recordedvalue=43000

stdin: Give the measured IC50 of CC(c1cccc2ncccc12)N1C[C@H](C)N(c2cc(=O)n(C)c3ccc(C#N)nc23)C[C@H]1C (single isomer, unassigned) [Example 638] .
stdout: 1800

stdin: Give the measured IC50 of CC[C@@H]1CN(c2c(Cl)c(=O)n(C)c3ccc(C#N)nc23)CCN1C(c1ccc(Cl)cc1)c1ccc(Cl)cc1 .
stdout: 2700

stdin: Give the measured IC50 of Cc1cc(C(C)N2C[C@H](C)N(c3cc(=O)n(C)c4ccc(C#N)nc34)C[C@H]2C)ccc1F (stereo partly drawn) .
stdout: 2000

----------
In this section we review reported IC50 values for a set of molecules.
- tgt: human DGKζ (Homo sapiens)
- Construct: TVMV protease cleavage site (C); Hexa-His (C); made in house; host or cells: Sf9 insect cells (baculovirus, Bac-to-Bac)
- testMethodNotes: DGKζ LIPGLO assay (extruded liposome substrate), in vitro DGK inhibition
- Assay type: biochemical
- experimentalParameters: liposome (LIPGLO) assay; read-out: DGKz LIPGLO IC50
Respond numerically; units are µM and should not be typed.

// below: answered molecules
molecule="Cn1c(=O)c(C#N)c(N2CCN(C(c3ccc(F)cc3)c3ccc(F)cc3)C(C(=O)O)C2)c2nc(Br)ccc21 (centres unmarked)" outcomemeasure=IC50 recordedvalue=150
molecule="C[C@@H]1CN(c2cc(=O)n(C)c3ccc(C#N)nc23)[C@@H](C)CN1C(c1ccc(F)cc1)c1nc(C2CC2)cs1 (single isomer, unassigned) [Example 700]" outcomemeasure=IC50 recordedvalue=0.095

stdin: # value lookup — system human DGKζ (Homo sapiens), readout IC50, item C[C@@H]1CN(C(c2ccc(F)cc2)c2ccc(C#N)cc2)[C@@H](CO)CN1c1cc(=O)n(C)c2ccc(C#N)nc12 (single isomer, unassigned) [Example 1176]
stdout: 2.9

stdin: # value lookup — system human DGKζ (Homo sapiens), readout IC50, item C[C@@H]1CN(c2cc(=O)n(C)c3ccc(C#N)nc23)[C@@H](C)CN1Cc1nnc(C(F)(F)F)o1
stdout: 5.6

----------
- tgt: human DGKα (Homo sapiens, UniProt P23743)
- Construct: TVMV protease cleavage site (C); Hexa-His (C); made in house; host or cells: Sf9 insect cells (baculovirus, Bac-to-Bac)
- testMethodNotes: DGKα LIPGLO assay (extruded liposome substrate), in vitro DGK inhibition
- Format: biochemical
- experimentalParameters: DGKα liposome (LIPGLO) assay; read-out: DGKa LIPGLO IC50
outcomeMeasure: log10 IC50 (log10 of the value in nM)
# log10 transformed; quantity=IC50; unit=nM

molecule="Cc1ccc(C(c2ccc(C)cc2)N2CCN(c3c(C#N)c(=O)n(C)c4ccc(C#N)nc34)C[C@H]2C)cc1 [Example 870]" tgt="human DGKα (Homo sapiens, UniProt P23743)" recordedvalue=3.40

stdin: Give the measured log10 IC50 of C[C@@H]1CN(c2c(C#N)c(=O)n(C)c3ccc(C#N)nc23)CCN1C(c1cccc(Cl)c1)c1ccc(F)cn1 (stereo partly drawn) [Example 926] .
stdout: 3.40

stdin: Give the measured log10 IC50 of C[C@@H]1CN(c2c(C#N)c(=O)n(C)c3ccc(C#N)nc23)CCN1C(c1cccc(F)c1)c1ccc(F)cn1 (single isomer, unassigned) [Example 925] .
stdout: 3.40

stdin: Give the measured log10 IC50 of C[C@@H]1CN(c2c(C#N)c(=O)n(C)c3ccc(C#N)nc23)[C@@H](C)CN1C(c1ccc(F)cc1)c1cc(C2CC2)on1 (single isomer, unassigned) [Example 869] .
stdout: 4.23

stdin: Give the measured log10 IC50 of C[C@@H]1CN(c2c(C#N)c(=O)n(C)c3ccc(C#N)nc23)[C@@H](C)CN1C(c1ccc(F)cc1)c1cnn(C)c1 (stereo partly drawn) [Example 847] .
stdout: 4.34

stdin: Give the measured log10 IC50 of COc1ncccc1C(c1ccc(F)cc1)N1CCN(c2c(C#N)c(=O)n(C)c3ccc(C#N)nc23)C[C@H]1C (single isomer, unassigned) [Example 894] .
stdout: 3.93

stdin: Give the measured log10 IC50 of C[C@@H]1CN(c2c(C#N)c(=O)n(C)c3ccc(C#N)nc23)CCN1C(c1ccc(F)cc1)c1ccc(Cl)cn1 (stereo partly drawn) [Example 932] .
stdout: 2.18

stdin: Give the measured log10 IC50 of C[C@@H]1CN(c2c(C#N)c(=O)n(C)c3ccc(C#N)nc23)CCN1Cc1ccc(F)cc1F [Example 985] .
stdout: 3.34

stdin: Give the measured log10 IC50 of CC(C)c1noc(C(c2ccc(F)cc2)N2C[C@H](C)N(c3cc(=O)n(C)c4ccc(C#N)nc34)C[C@H]2C)n1 (single isomer, unassigned) [Example 748] .
stdout: 1.73

stdin: Give the measured log10 IC50 of Cc1ccc(C(c2ccc(F)cn2)N2CCN(c3c(C#N)c(=O)n(C)c4ccc(C#N)nc34)C[C@H]2C)cc1 (stereo partly drawn) [Example 898] .
stdout: 2.53

stdin: Give the measured log10 IC50 of CC(c1c(F)cccc1F)N1CCN(c2c(C#N)c(=O)n(C)c3ccc(C#N)nc23)C[C@H]1C (single isomer, unassigned) [Example 951] .
stdout: 3.57

stdin: Give the measured log10 IC50 of C[C@@H]1CN(c2cc(=O)n(C)c3ccc(C#N)nc23)[C@@H](C)CN1C(c1ccc(F)cc1)c1cnn(C2CC2)c1 (single isomer, unassigned) [Example 726] .
stdout: 3.28

stdin: Give the measured log10 IC50 of C[C@@H]1CN(c2c(C#N)c(=O)n(C)c3ccc(C#N)nc23)CCN1C(c1ccccc1)c1ccc(F)cc1 (single isomer, unassigned) [Example 879] .
stdout: 2.78

stdin: Give the measured log10 IC50 of Cc1ccc(C(c2ccc(F)cc2Cl)N2C[C@H](C)N(c3c(C#N)c(=O)n(C)c4ccc(C#N)nc34)C[C@H]2C)nc1 (stereo partly drawn) [Example 831] .
stdout: 4.62

stdin: Give the measured log10 IC50 of C[C@@H]1CN(c2c(C#N)c(=O)n(C)c3ccc(C#N)nc23)CCN1C(c1ccc(Cl)cc1)c1ccc(C#N)cc1 (single isomer, unassigned) [Example 873] .
stdout: 3.41

stdin: Give the measured log10 IC50 of C[C@@H]1CN(c2cc(=O)n(C)c3ccc(C#N)nc23)[C@@H](C)CN1C(c1ccc(F)cc1)c1nnc(C2CC2)s1 (stereo partly drawn) [Example 774] .
stdout: 2.80

stdin: Give the measured log10 IC50 of C[C@@H]1CN(c2cc(=O)n(C)c3ccc(C#N)nc23)[C@@H](C)CN1C(c1ccc(F)cc1)c1cnn(C2CC2)c1 (single isomer, unassigned) [Example 725] .
stdout: 2.74

stdin: Give the measured log10 IC50 of C[C@@H]1CN(c2cc(=O)n(C)c3ccc(C#N)nc23)[C@@H](C)CN1C(c1ccc(F)cc1)c1nc(C2CN(C(=O)OC(C)(C)C)C2)no1 (single isomer, unassigned) [Example 757] .
stdout: 1.36

stdin: Give the measured log10 IC50 of CC(c1ccc(C(F)(F)F)cc1)N1CCN(c2c(C#N)c(=O)n(C)c3ccc(C#N)nc23)C[C@H]1C (single isomer, unassigned) [Example 960] .
stdout: 3.83

stdin: Give the measured log10 IC50 of C[C@@H]1CN(c2c(C#N)c(=O)n(C)c3ccc(C#N)nc23)[C@@H](C)CN1C(c1ccc(F)cc1)c1ccon1 (single isomer, unassigned) [Example 851] .
stdout: 3.11

stdin: Give the measured log10 IC50 of CC(c1ccc(C(=O)O)cc1)N1C[C@H](C)N(c2c(C#N)c(=O)n(C)c3ccc(C#N)nc23)C[C@H]1C (stereo partly drawn) [Example 787] .
stdout: 5.30

stdin: Give the measured log10 IC50 of COC(=O)c1cccc(C(C)N2CCN(c3c(C#N)c(=O)n(C)c4ccc(C#N)nc34)C[C@H]2C)c1 (single isomer, unassigned) [Example 982] .
stdout: 3.91

stdin: Give the measured log10 IC50 of C[C@@H]1CN(c2c(C#N)c(=O)n(C)c3ccc(C#N)nc23)CCN1C(c1ccc(F)cc1)c1ncccc1F (single isomer, unassigned) [Example 891] .
stdout: 3.49
